// data source = the NIST ThermoML archive (doi:10.1021/je200883w)

The following compounds are shown together with reported mass density values.
# TEST CONTEXT: 348.15 K; 101.33 kPa; Liquid; Vibrating tube method
Answer format: numeric, kg/m3 implied, no suffix.

Consider the following illustrative entries.
compound=CCCCCCCCCCCCCC[P+](CCCCCC)(CCCCCC)CCCCCC.FC(F)(F)C(F)(F)[P-](F)(F)(F)(C(F)(F)C(F)(F)F)C(F)(F)C(F)(F)F endpoint_name="mass density" numeric_readout=1141.2
compound="CCCC[N+]1(C)CCCC1.O=S(=O)([O-])C(F)(F)F [1-butyl-1-methylpyrrolidinium trifluoromethanesulfonate]" endpoint_name="mass density" numeric_readout=1216.8
compound=COCC[N+]1(C)CCCC1.O=S(=O)([N-]S(=O)(=O)C(F)(F)F)C(F)(F)F endpoint_name="mass density" numeric_readout=1408.2

Next, consider the following compound.
Please fill in: mass density reported for `CCCC[N+]1(C)CCCC1.FC(F)(F)C(F)(F)[P-](F)(F)(F)(C(F)(F)C(F)(F)F)C(F)(F)C(F)(F)F` = 1531.1

###

# TEST CONTEXT: 333.15 K; 101.33 kPa; Liquid; Vibrating tube method
ENDPOINT NAME: mass density (kg/m3)
Answer format: numeric, kg/m3 implied, no suffix.

Consider the following illustrative entries.
compound="CCCC[N+]1(C)CCCC1.O=S(=O)([O-])C(F)(F)F [1-butyl-1-methylpyrrolidinium trifluoromethanesulfonate]" numeric_readout=1227.3
compound=COCC[N+]1(C)CCCC1.O=S(=O)([N-]S(=O)(=O)C(F)(F)F)C(F)(F)F numeric_readout=1422
compound=CCCCCCCCCCCCCC[P+](CCCCCC)(CCCCCC)CCCCCC.FC(F)(F)C(F)(F)[P-](F)(F)(F)(C(F)(F)C(F)(F)F)C(F)(F)C(F)(F)F numeric_readout=1153.3
compound="CCCCCCOS(=O)(=O)[O-].CC[n+]1ccn(C)c1 [3-ethyl-1-methyl-1H-imidazolium hexyl sulfate]" numeric_readout=1107.6

Next, consider the following compound.
Please fill in: mass density reported for `CCCC[N+]1(C)CCCC1.O=S(=O)([N-]S(=O)(=O)C(F)(F)F)C(F)(F)F` = 1364.3

###

# TEST CONTEXT: 283.15 K; 101.33 kPa; Liquid; Vibrating tube method
ENDPOINT NAME: mass density (kg/m3)
Answer format: numeric, kg/m3 implied, no suffix.

Consider the following illustrative entries.
compound="CCCC[N+]1(C)CCCC1.O=S(=O)([O-])C(F)(F)F [1-butyl-1-methylpyrrolidinium trifluoromethanesulfonate]" numeric_readout=1263.6
compound=COCC[N+]1(C)CCCC1.O=S(=O)([N-]S(=O)(=O)C(F)(F)F)C(F)(F)F numeric_readout=1468.8
compound="CCOS(=O)(=O)[O-].CCn1cc[n+](C)c1 [1-ethyl-3-methylimidazolium ethyl sulfate]" numeric_readout=1248.3

Please fill in: mass density reported for `CCCC[N+]1(C)CCCC1.O=S(=O)([N-]S(=O)(=O)C(F)(F)F)C(F)(F)F` = 1408.3

###

The following compounds are shown together with reported mass density values.
# TEST CONTEXT: 343.15 K; 101.33 kPa; Liquid; Vibrating tube method
Answer format: numeric, kg/m3 implied, no suffix.

Please fill in: mass density reported for CCOS(=O)(=O)[O-].CCn1cc[n+](C)c1 [1-ethyl-3-methylimidazolium ethyl sulfate] = 1207.2

Please fill in: mass density reported for `CCCCn1cc[n+](C)c1C.O=S(=O)([N-]S(=O)(=O)C(F)(F)F)C(F)(F)F` = 1378.4

Please fill in: mass density reported for `COCC[N+]1(C)CCCC1.O=S(=O)([N-]S(=O)(=O)C(F)(F)F)C(F)(F)F` = 1412.9

Please fill in: mass density reported for `CCCCCCCCCCCCCC[P+](CCCCCC)(CCCCCC)CCCCCC.FC(F)(F)C(F)(F)[P-](F)(F)(F)(C(F)(F)C(F)(F)F)C(F)(F)C(F)(F)F` = 1145.3

Please fill in: mass density reported for `CCCC[N+]1(C)CCCC1.O=S(=O)([N-]S(=O)(=O)C(F)(F)F)C(F)(F)F` = 1355.7

Please fill in: mass density reported for `CCCC[N+]1(C)CCCC1.FC(F)(F)C(F)(F)[P-](F)(F)(F)(C(F)(F)C(F)(F)F)C(F)(F)C(F)(F)F` = 1536.3

Please fill in: mass density reported for CCCCCCOS(=O)(=O)[O-].CC[n+]1ccn(C)c1 [3-ethyl-1-methyl-1H-imidazolium hexyl sulfate] = 1101.2

Please fill in: mass density reported for CCCC[N+]1(C)CCCC1.O=S(=O)([O-])C(F)(F)F [1-butyl-1-methylpyrrolidinium trifluoromethanesulfonate] = 1220.3

###

# TEST CONTEXT: 333.15 K; 101.33 kPa; Liquid; Concentric cylinders viscometry
± gives the expanded uncertainty stated by the source.
The following molecules are shown together with reported viscosity values.
Give me the value, and tack the unit on after it.

Consider the following illustrative entries.
molecule=CCCC[N+]1(C)CCCC1.FC(F)(F)C(F)(F)[P-](F)(F)(F)(C(F)(F)C(F)(F)F)C(F)(F)C(F)(F)F endpoint_name=viscosity result="41.48 ± 0.98 mPa·s"
molecule=CCCCn1cc[n+](C)c1C.O=S(=O)([N-]S(=O)(=O)C(F)(F)F)C(F)(F)F endpoint_name=viscosity result="24.54 ± 0.58 mPa·s"
molecule=CCCCCCCCCCCCCC[P+](CCCCCC)(CCCCCC)CCCCCC.FC(F)(F)C(F)(F)[P-](F)(F)(F)(C(F)(F)C(F)(F)F)C(F)(F)C(F)(F)F endpoint_name=viscosity result="63.45 ± 1.5 mPa·s"
molecule="CCCC[N+]1(C)CCCC1.O=S(=O)([O-])C(F)(F)F [1-butyl-1-methylpyrrolidinium trifluoromethanesulfonate]" endpoint_name=viscosity result="38.16 ± 0.9 mPa·s"
molecule="CCOS(=O)(=O)[O-].CCn1cc[n+](C)c1 [1-ethyl-3-methylimidazolium ethyl sulfate]" endpoint_name=viscosity result="25.15 ± 0.59 mPa·s"
molecule=COCC[N+]1(C)CCCC1.O=S(=O)([N-]S(=O)(=O)C(F)(F)F)C(F)(F)F endpoint_name=viscosity result="17.09 ± 0.4 mPa·s"

Please fill in: viscosity reported for `CCCC[N+]1(C)CCCC1.O=S(=O)([N-]S(=O)(=O)C(F)(F)F)C(F)(F)F` = 21.6 ± 0.5 mPa·s

Please fill in: viscosity reported for CCCCCCOS(=O)(=O)[O-].CC[n+]1ccn(C)c1 [3-ethyl-1-methyl-1H-imidazolium hexyl sulfate] = 57.21 ± 1.4 mPa·s

###

The following compounds are shown together with reported viscosity values.
# TEST CONTEXT: 303.15 K; 101.33 kPa; Liquid; Concentric cylinders viscometry
Answer format: numeric, mPa·s implied, no suffix.

Consider the following illustrative entries.
compound=CCCCCCCCCCCCCC[P+](CCCCCC)(CCCCCC)CCCCCC.FC(F)(F)C(F)(F)[P-](F)(F)(F)(C(F)(F)C(F)(F)F)C(F)(F)C(F)(F)F endpoint_name=viscosity numeric_readout=260.12
compound="CCCCCCOS(=O)(=O)[O-].CC[n+]1ccn(C)c1 [3-ethyl-1-methyl-1H-imidazolium hexyl sulfate]" endpoint_name=viscosity numeric_readout=234.83
compound=COCC[N+]1(C)CCCC1.O=S(=O)([N-]S(=O)(=O)C(F)(F)F)C(F)(F)F endpoint_name=viscosity numeric_readout=44.9
compound="CCOS(=O)(=O)[O-].CCn1cc[n+](C)c1 [1-ethyl-3-methylimidazolium ethyl sulfate]" endpoint_name=viscosity numeric_readout=77.01
compound=CCCC[N+]1(C)CCCC1.FC(F)(F)C(F)(F)[P-](F)(F)(F)(C(F)(F)C(F)(F)F)C(F)(F)C(F)(F)F endpoint_name=viscosity numeric_readout=159.61
compound=CCCCn1cc[n+](C)c1C.O=S(=O)([N-]S(=O)(=O)C(F)(F)F)C(F)(F)F endpoint_name=viscosity numeric_readout=79.46

Please fill in: viscosity reported for `CCCC[N+]1(C)CCCC1.O=S(=O)([N-]S(=O)(=O)C(F)(F)F)C(F)(F)F` = 62.14

Please fill in: viscosity reported for CCCC[N+]1(C)CCCC1.O=S(=O)([O-])C(F)(F)F [1-butyl-1-methylpyrrolidinium trifluoromethanesulfonate] = 129.71

###

# TEST CONTEXT: 318.15 K; 101.33 kPa; Liquid; Vibrating tube method
ENDPOINT NAME: mass density (kg/m3)
Answer format: numeric, kg/m3 implied, no suffix.

smiles_entry=CCCC[N+]1(C)CCCC1.O=S(=O)([N-]S(=O)(=O)C(F)(F)F)C(F)(F)F scale_unit=kg/m3 numeric_readout=1377.4

Please fill in: mass density reported for `CCCCn1cc[n+](C)c1C.O=S(=O)([N-]S(=O)(=O)C(F)(F)F)C(F)(F)F` = 1401

Please fill in: mass density reported for `CCCCCCCCCCCCCC[P+](CCCCCC)(CCCCCC)CCCCCC.FC(F)(F)C(F)(F)[P-](F)(F)(F)(C(F)(F)C(F)(F)F)C(F)(F)C(F)(F)F` = 1165.3

Please fill in: mass density reported for `CCCC[N+]1(C)CCCC1.FC(F)(F)C(F)(F)[P-](F)(F)(F)(C(F)(F)C(F)(F)F)C(F)(F)C(F)(F)F` = 1562.1
